- assay-method-text: Plasma pharmacokinetics of SGC003F in rats with or without tariquidar
- Assay type: in vivo, rat
- run-conditions: male, Sprague-Dawley, rat, plasma, iv, 1 mg/kg, SGC003F i.v. 1 mg/kg, with tariquidar p.o. 15 mg/kg
recorded-endpoint: clearance (mL/min/kg)
Hi! Could you send only the number? It should be in mL/min/kg, unit omitted.

stdin: Fill in reported clearance for this entry: COC(=O)Nc1c(N)nc(-c2nn(Cc3sccc3F)c3ncc(F)cc23)nc1N [SGC003F]
stdout: 1.49

###

- assay-method-text: Tissue distribution of SGC003F in rats with or without tariquidar
- Format: in vivo
- run-conditions: male, SD, rat, heart, oral, SGC003F p.o. 1 mg/kg, with tariquidar p.o. 15 mg/kg, read-out: KP2, Heart
recorded-endpoint: Kp

stdin: Fill in reported Kp for this entry: COC(=O)Nc1c(N)nc(-c2nn(Cc3sccc3F)c3ncc(F)cc23)nc1N [SGC003F]
stdout: 0.45

###

- assay-method-text: Plasma pharmacokinetics of SGC003F in rats with or without tariquidar
- Format: in vivo, rat
- run-conditions: male, Sprague-Dawley, rat, plasma, iv, 1 mg/kg, rat, SGC003F i.v. 1 mg/kg, with tariquidar p.o. 15 mg/kg; read-out: Vss
recorded-endpoint: Vd (L/kg)
Hi! Could you send only the number? It should be in L/kg, unit omitted.

stdin: Fill in reported Vd for this entry: COC(=O)Nc1c(N)nc(-c2nn(Cc3sccc3F)c3ncc(F)cc23)nc1N [SGC003F]
stdout: 0.382

###

- assay-method-text: Plasma pharmacokinetics of SGC003F in rats with or without tariquidar
- Type: in vivo, rat
- run-conditions: male, Sprague-Dawley, rat, plasma, po, 1 mg/kg, rat plasma, SGC003F p.o. 1 mg/kg, single
recorded-endpoint: AUC(0-t)
Answer shape: numeric part, then the unit.

stdin: Fill in reported AUC(0-t) for this entry: COC(=O)Nc1c(N)nc(-c2nn(Cc3sccc3F)c3ncc(F)cc23)nc1N [SGC003F]
stdout: 3540 ng·h/mL

###

- assay-method-text: Tissue distribution of SGC003F in rats with or without tariquidar
- Assay type: in vivo
- run-conditions: male, SD, rat, liver, po, 1 mg/kg, SGC003F p.o. 1 mg/kg, with tariquidar i.v. 7.5 mg/kg, read-out: AUC(0–24h), Liver
recorded-endpoint: AUC(0-t) (ng·h/mL)
Hi! Could you send only the number? It should be in ng·h/mL, unit omitted.

stdin: Fill in reported AUC(0-t) for this entry: COC(=O)Nc1c(N)nc(-c2nn(Cc3sccc3F)c3ncc(F)cc23)nc1N [SGC003F]
stdout: 6360

###

- assay-method-text: Plasma pharmacokinetics of SGC003F in rats with or without tariquidar
- Type: in vivo, rat
- run-conditions: male, Sprague-Dawley, rat, plasma, po, 1 mg/kg, rat plasma, SGC003F p.o. 1 mg/kg, with tariquidar p.o. 15 mg/kg
recorded-endpoint: AUC(0-t) (ng·h/mL)
Hi! Could you send only the number? It should be in ng·h/mL, unit omitted.

stdin: Fill in reported AUC(0-t) for this entry: COC(=O)Nc1c(N)nc(-c2nn(Cc3sccc3F)c3ncc(F)cc23)nc1N [SGC003F]
stdout: 10800

###

- assay-method-text: Plasma pharmacokinetics of SGC003F in rats with or without tariquidar
- Assay type: in vivo, rat
- run-conditions: male, Sprague-Dawley, rat, plasma, iv, 1 mg/kg, rat, SGC003F i.v. 1 mg/kg, single; read-out: Vss
recorded-endpoint: Vd (L/kg)
Hi! Could you send only the number? It should be in L/kg, unit omitted.

stdin: Fill in reported Vd for this entry: COC(=O)Nc1c(N)nc(-c2nn(Cc3sccc3F)c3ncc(F)cc23)nc1N [SGC003F]
stdout: 0.419
